molecular target: T1, human MSLN-FL-his protein (human, UniProt Q13421 296-580); assay: ELISA, coated antigen; antibody 0.01 nM
T1 construct: also called hMSLN-FL-his; human MSLN full-length protein; not shown: His tag
T1 sequence (Q13421 other isoform, or with tags, fused parts or gaps): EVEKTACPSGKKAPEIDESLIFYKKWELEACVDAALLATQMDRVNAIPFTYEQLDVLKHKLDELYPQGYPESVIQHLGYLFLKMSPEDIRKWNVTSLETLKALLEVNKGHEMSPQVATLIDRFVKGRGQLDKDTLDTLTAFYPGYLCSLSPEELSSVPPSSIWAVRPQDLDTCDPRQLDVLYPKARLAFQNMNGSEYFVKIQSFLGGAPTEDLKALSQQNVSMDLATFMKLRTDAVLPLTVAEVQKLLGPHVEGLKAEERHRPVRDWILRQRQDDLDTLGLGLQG
We label by threshold. Values of OD450 strictly beneath 0.4 are t. Values of 0.4 and up are f.

For orientation, consider the following solved cases.
S009-F1.25.10 human-murine chimeric antibody (antibody, human IgG1, kappa, V domains shown, Chimeric IgG1/kappa) VH: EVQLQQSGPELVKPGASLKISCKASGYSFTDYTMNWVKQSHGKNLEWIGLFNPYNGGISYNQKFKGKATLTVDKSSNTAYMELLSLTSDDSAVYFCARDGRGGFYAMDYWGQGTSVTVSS VL: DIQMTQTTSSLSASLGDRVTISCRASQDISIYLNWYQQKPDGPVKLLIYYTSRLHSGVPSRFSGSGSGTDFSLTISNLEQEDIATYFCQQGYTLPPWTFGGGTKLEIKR | f
S009-F1.2.12 human-murine chimeric antibody (antibody, human IgG1, kappa, V domains shown, Chimeric IgG1/kappa) VH: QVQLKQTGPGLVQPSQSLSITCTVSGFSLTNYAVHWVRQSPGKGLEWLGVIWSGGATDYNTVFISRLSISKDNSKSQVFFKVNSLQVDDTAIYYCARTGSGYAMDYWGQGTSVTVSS VL: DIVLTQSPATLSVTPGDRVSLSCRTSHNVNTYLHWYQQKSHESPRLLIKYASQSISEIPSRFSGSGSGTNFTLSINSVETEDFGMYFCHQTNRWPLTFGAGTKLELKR | f
S009-F1.57.1 human-murine chimeric antibody (antibody, human IgG1, kappa, V domains shown, Chimeric IgG1/kappa) VH: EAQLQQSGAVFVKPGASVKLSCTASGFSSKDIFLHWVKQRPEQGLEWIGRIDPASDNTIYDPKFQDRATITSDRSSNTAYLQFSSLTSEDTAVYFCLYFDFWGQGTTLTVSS VL: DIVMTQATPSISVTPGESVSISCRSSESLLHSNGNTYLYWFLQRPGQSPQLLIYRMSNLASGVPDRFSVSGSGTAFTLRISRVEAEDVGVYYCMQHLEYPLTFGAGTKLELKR | t

Query: Given the entry S009-F1.56.1 human-murine chimeric antibody (antibody, human IgG1, kappa, V domains shown, Chimeric IgG1/kappa) VH: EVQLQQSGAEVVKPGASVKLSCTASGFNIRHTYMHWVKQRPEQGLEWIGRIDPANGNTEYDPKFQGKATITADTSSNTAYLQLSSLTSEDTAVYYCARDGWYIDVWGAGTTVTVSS VL: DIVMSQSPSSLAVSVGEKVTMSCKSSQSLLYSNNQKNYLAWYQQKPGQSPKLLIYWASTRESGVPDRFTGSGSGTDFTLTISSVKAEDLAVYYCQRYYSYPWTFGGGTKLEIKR , would its reported OD450 be below 0.4?
Response: f

Query: State whether 0.4 exceeds OD450 recorded for S009-F1.59.1 human-murine chimeric antibody (antibody, human IgG1, kappa, V domains shown, Chimeric IgG1/kappa) VH: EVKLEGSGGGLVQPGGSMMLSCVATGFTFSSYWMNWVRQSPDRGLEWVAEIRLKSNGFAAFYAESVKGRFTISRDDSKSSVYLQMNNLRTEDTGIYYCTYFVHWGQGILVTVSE VL: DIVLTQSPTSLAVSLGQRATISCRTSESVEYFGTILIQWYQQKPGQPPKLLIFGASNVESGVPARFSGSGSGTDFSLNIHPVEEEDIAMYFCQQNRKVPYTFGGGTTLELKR .
Response: f

Query: Record S009-F1.62.9 human-murine chimeric antibody (antibody, human IgG1, kappa, V domains shown, Chimeric IgG1/kappa) VH: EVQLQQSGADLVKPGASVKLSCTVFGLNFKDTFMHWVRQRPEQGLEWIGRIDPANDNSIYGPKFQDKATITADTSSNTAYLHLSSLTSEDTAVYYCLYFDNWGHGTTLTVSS VL: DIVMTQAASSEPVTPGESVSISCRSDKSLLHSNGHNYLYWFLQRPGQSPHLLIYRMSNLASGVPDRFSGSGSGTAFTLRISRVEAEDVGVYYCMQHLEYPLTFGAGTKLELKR : is its OD450 strictly below 0.4?
Response: f

Reference for the values: patent US20250250357A1
